Please go through the items and note down their TGI.
# Test system: U251 CNS
# Procedure Text: NCI tumour cell line growth inhibition, 48 h

Data request: What does the record list as TGI for O=C1OC2(c3ccc(O)cc3Oc3cc(O)ccc32)c2c1c(-c1ccccc1)c(-c1ccccc1)c(-c1ccccc1)c2-c1ccccc1 ?
Data returned: 31.5 µM

Data request: Ok, now COc1ccc2c(c1)/C(=C\c1cccc(/C=C3/C(=O)Nc4ccc(OC)cc43)n1)C(=O)N2
Data returned: 5.83 µM

Data request: Same for NC(=O)c1cc(C2OC(CO)C(O)C2O)nn1-c1ccc([N+](=O)[O-])cc1 (stereo unspecified)
Data returned: > 100 µM

Data request: Try this molecule next: O=c1[nH]c2ccsc2c(=O)n1COCc1ccccc1
Data returned: > 100 µM

Data request: // same read-out, input: N=C(N)C1CN(CC=O)C(=O)NC1=O (stereo unspecified)
Data returned: > 100 µM

Data request: Now consider CN1CCN(C(=S)N(C)C(=O)c2cccs2)CC1 and answer again.
Data returned: > 100 µM

Data request: Now the same for COc1cc(CCCC(O)COc2cccc3c2C2(O)CCCCCC32)cc(OC)c1 (stereo unspecified)
Data returned: 32.9 µM

Data request: Quick one: O=C(NN1C(=O)c2ccccc2C1=O)c1ccccc1Nc1ccccc1C(=O)NN1C(=O)c2ccccc2C1=O
Data returned: > 100 µM

Data request: Param item: Cc1ccc(NC(=O)c2ccnc(N3CCCC3)c2)cc1-c1ccc(C(=O)NCC2CC2)cc1
Data returned: > 25 µM

Data request: What do you have for COc1ccc(-c2cc(-c3ccco3)c(C#N)c(=S)n2C2OC(CO)C(O)C(O)C2O)cc1 (stereo unspecified) ?
Data returned: > 100 µM

Data request: What do we get for O=C1c2ccccc2C(=O)c2nc(-c3ccccc3)c(-c3ccccc3)nc21 ?
Data returned: > 100 µM

Data request: Also check C=CC1(c2ccc(Br)cc2)OCCCO1
Data returned: > 100 µM

Data request: Next molecule: CC[C@H](C)C(=O)O[C@H]1CCC=C2C=C[C@H](C)C(CCC3C[C@@H](O)CC(=O)O3)[C@H]21 (stereo partly specified)
Data returned: > 100 µM

Data request: // repeat for CSC(=N)N1N=C2c3ccccc3CC[C@@H]2[C@@H]1c1ccccc1 and report
Data returned: 31 µM

Data request: For Cc1nc2ccc(N=NN(C)C)cc2[nH]1 then?
Data returned: > 100 µM

Data request: Next molecule: CN(C)CCN1C(=O)c2ccccc2C1(O)c1ccc(Cl)cc1 (stereo unspecified)
Data returned: > 100 µM

Data request: Moving on to the next molecule: N#CC1=C(N)Nc2nc3ccccc3n2C1c1ccccc1 (stereo unspecified)
Data returned: > 100 µM

Data request: Try this molecule next: C/C(=N/NC(=S)N1CCCC1)c1cccc(/C(C)=N\NC(=S)N2CCCC2)n1
Data returned: 4.14 µM

Data request: // next record NC(=S)N/N=C(/C(=O)Nc1nc2ccc([N+](=O)[O-])cc2s1)C1C(=O)NC(=S)NC1=O
Data returned: > 100 µM

Data request: Try this molecule next: O=C1/C(=C/C(Cl)=C/c2ccccc2)SC(=S)N1CCc1ccc(O)cc1
Data returned: 2.66 µM

Data request: Request: CCCCCCCCCCCCCCCCOCCCOP(=O)(O)C1CCCN(O)C1=O (stereo unspecified)
Data returned: 15.3 µM
